- System: S. mansoni adult worms
- assay.procedure: GSH/GSSG ratio in ex vivo adult worms
- Assay type: cell-based
- experimental.parameters: 1 hr; first data set (r117-133), baseline = 100
I'd be grateful if you could share measured % Ratio GSH/GSSG for these entries.
Answers are plain numbers, in %.

Below, each entry is followed by its recorded % Ratio GSH/GSSG result.
{"compound": "CC(=O)OC[C@H]1O[C@@H]([S-])[C@H](OC(C)=O)[C@@H](OC(C)=O)[C@@H]1OC(C)=O.CCP(CC)CC.[Au+] [AF, auranofin, reference compound]", "measurement.label": "% Ratio GSH/GSSG", "measured.value": 14.9481}
{"compound": "CCc1ccccc1-c1nc(CN[C@@H]2C[C@@H]3C[C@H]([C@H]2C)C3(C)C)c(C)o1", "measurement.label": "% Ratio GSH/GSSG", "measured.value": 61.2531}
{"compound": "C[C@@H]1N=C(c2ccccc2Cl)c2cc([N+](=O)[O-])ccc2NC1=O [MZM, meclonazepam, reference compound]", "measurement.label": "% Ratio GSH/GSSG", "measured.value": 98.7253}
{"compound": "Cc1oc(C2CCCCC2)nc1CN[C@@H]1C[C@@H]2C[C@H]([C@H]1C)C2(C)C", "measurement.label": "% Ratio GSH/GSSG", "measured.value": 50.452}
{"compound": "O=C(C1CCCCC1)N1CC(=O)N2CCc3ccccc3C2C1 (stereo not drawn)", "measurement.label": "% Ratio GSH/GSSG", "measured.value": 99.1418}

Continue with the compound presented below.
Please fill in: % Ratio GSH/GSSG reported for Cc1oc(-c2ccccc2)nc1CN[C@@H]1C[C@@H]2C[C@H]([C@H]1C)C2(C)C = 53.4928
